# Test system: PPARg:RXRa 90nM:30nM, anti-RXR (NR concentration 90 nM, RXRa partner concentration 30 nM)
# Procedure Details: PBM binding z-score (relative to random genomic background probes); higher = stronger binding; sequences stand for … in GC…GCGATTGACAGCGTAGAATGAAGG
Metric: PBM binding z-score
// no unit, no text: just the number

# Residue String, Result
records = [
    ("CGAACTAGGTCAAGGACTGTGAATCTCCGCACGC", 5.99),
    ("ACTTACAGGTCAACGAGGTTATAGCACGCGTATA", 4.37),
    ("CTTCCAAGGTGAACAAGGTCGTTGATTACTATTC", 0.487),
    ("ACAGACAGGTGAAGAAGGTAACTCAGGCTATCAT", -0.0588),
    ("CCTACTGGGCCATTCAGAGTTCATTGATCATATG", 0.782),
    ("ATCGACAGGTCGTGAGGTGAGTATACAGAAAGGC", 0.461),
    ("CGAACGAGGGCATGAGTTGATAGCAAATGCCGAT", 0.976),
    ("CCTAGGAGGCCAATCTGGGTCACTCAAGGCTTGA", 1.85),
]

Incoming: # query: PBM binding z-score of entry `ACTAGTTGGTCAGCTGAGTTCACACACAATTCGG`
Outgoing: 0.251

Incoming: # query: PBM binding z-score of entry `ACAGACAGGTGAGTCAAGGTAACTCAGCTGGACG`
Outgoing: -0.347

Incoming: # query: PBM binding z-score of entry `GGAACGGGGGCAAAGTTGATAGCATCTGTCGACG`
Outgoing: 9.94

Incoming: # query: PBM binding z-score of entry `CCTTACGGGTCACTCCAGGTTATACCATCGGAGT`
Outgoing: 2.42

Incoming: # query: PBM binding z-score of entry `ATATGTAGGTTATCGGGTCATTCTGTTTGCGCAT`
Outgoing: 5.94

Incoming: # query: PBM binding z-score of entry `CAAACTAGGTCACCGGAAGGTCAAAGCCCGCATG`
Outgoing: 7.57

Incoming: # query: PBM binding z-score of entry `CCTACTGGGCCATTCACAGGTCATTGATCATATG`
Outgoing: 1.3
